src = patent EP1290011B1

Reported pIC50 values follow for various molecules
Tested on: CEM/R
ASSAY_PROCEDURE: cells
Type: cell-based, human
CONDITION_DETAILS: CEM/R; 72 hours incubation; read-out: IC50
pIC50: −log10 of the molar value. Where a name gives a salt, the structure may show the parent alone.
ENDPOINT_LABEL: pIC50

1) CCOC(=O)[C@H](Cc1ccc(OC)cc1)NC(=O)[C@@H](N)Cc1ccc(N(CCCl)CCCl)cc1 [JV25, hydrochloride]    7.70
2) CCOC(=O)[C@H](Cc1ccc([N+](=O)[O-])cc1)NC(=O)[C@@H](N)Cc1ccc(N(CCCl)CCCl)cc1 [JV26, hydrochloride]    7.52
3) CCOC(=O)[C@H](Cc1ccc(N(CCCl)CCCl)cc1)NC(=O)[C@@H](N)Cc1ccc(N(CCCl)CCCl)cc1 [JV27, hydrochloride]    7.00
4) CC(C)OC(=O)[C@H](Cc1ccc(F)cc1)NC(=O)[C@@H](N)Cc1ccc(N(CCCl)CCCl)cc1.Cl [JV28, hydrochloride]    7.40
5) CCOC(=O)[C@H](Cc1ccc(F)cc1)NC(=O)[C@@H](N)Cc1ccc(N(CCCl)CCCl)cc1.Cl [Example J1, hydrochloride]    8.00
6) O=c1[nH]cc(F)c(=O)[nH]1 [Example 5-FU, 5-FU, reference compound]    4.35
7) CCOC(=O)[C@H](Cc1ccc(N)cc1)NC(=O)[C@@H](N)Cc1ccc(N(CCCl)CCCl)cc1 [JV29, hydrochloride]    7.52
8) CCOC(=O)[C@H](Cc1ccc(F)cc1)NC(=O)[C@H](Cc1ccc(N(CCCl)CCCl)cc1)NC(=O)[C@@H]1CCCN1.Cl [Example J3, hydrochloride]    7.70
9) CCOC(=O)[C@H](Cc1ccc(F)cc1)NC(=O)[C@H](Cc1cccc(N(CCCl)CCCl)c1)NC(=O)[C@@H]1CCCN1 [Example P2, hydrochloride, reference compound]    6.20
